Catalogue of compounds with associated fraction unbound
# assay-text: PPB
# Format: in vitro ADME
# details: plasma
experimental-readout: fraction unbound

[[record]]
compound = "Cc1ncsc1-c1ccc(CNC(=O)[C@@H]2C[C@@H](O)CN2C(=O)[C@@H](NC(=O)CCOCCOc2ccc(Nc3ncc(C(F)(F)F)c(NCc4cccc(N(C)S(C)(=O)=O)c4)n3)cc2)C(C)(C)C)cc1 [Compound 102]"
experimental_readout = "fraction unbound"
observed_result = 0.0066

[[record]]
compound = "Cc1ncsc1-c1ccc(CNC(=O)[C@@H]2C[C@@H](O)CN2C(=O)[C@@H](NC(=O)COCCCOc2ccc(Nc3ncc(C(F)(F)F)c(NCc4cccc(N(C)S(C)(=O)=O)c4)n3)cc2)C(C)(C)C)cc1 [Compound 101]"
experimental_readout = "fraction unbound"
observed_result = 0.0065

[[record]]
compound = "Cc1ncsc1-c1ccc(CNC(=O)[C@@H]2C[C@@H](O)CN2C(=O)[C@@H](NC(=O)COCCOc2ccc(Nc3ncc(C(F)(F)F)c(NCc4cccc(N(C)S(C)(=O)=O)c4)n3)cc2)C(C)(C)C)cc1 [Compound 100]"
experimental_readout = "fraction unbound"
observed_result = 0.008

[[record]]
compound = "Cc1ncsc1-c1ccc(CNC(=O)[C@@H]2C[C@@H](O)CN2C(=O)[C@@H](NC(=O)CCOCCCOc2ccc(Nc3ncc(C(F)(F)F)c(NCc4cccc(N(C)S(C)(=O)=O)c4)n3)cc2)C(C)(C)C)cc1 [Compound 103]"
experimental_readout = "fraction unbound"
observed_result = 0.0022


----------
Catalogue of compounds with associated concentration at 4 h
# assay-text: Pharmacokinetics of intraperitoneal or intravenous injection in CD1 mice
# Assay type: in vivo
# details: male, CD1, mouse, plasma, ip, 10 mg/kg, IP 10 mg/kg, CD1 mice plasma, 4 h; read-out: Conc. (ng/mL) Mouse 3
experimental-readout: concentration at 4 h (ng/mL)

[[record]]
compound = "Cc1ncsc1-c1ccc(CNC(=O)[C@@H]2C[C@@H](O)CN2C(=O)[C@@H](NC(=O)CCOCCCOc2ccc(Nc3ncc(C(F)(F)F)c(NCc4cccc(N(C)S(C)(=O)=O)c4)n3)cc2)C(C)(C)C)cc1 [Compound 103]"
experimental_readout = "concentration at 4 h"
observed_result = 768

[[record]]
compound = "Cc1ncsc1-c1ccc(CNC(=O)[C@@H]2C[C@@H](O)CN2C(=O)[C@@H](NC(=O)COCCOc2ccc(Nc3ncc(C(F)(F)F)c(NCc4cccc(N(C)S(C)(=O)=O)c4)n3)cc2)C(C)(C)C)cc1 [Compound 100]"
experimental_readout = "concentration at 4 h"
observed_result = 510


----------
# assay-text: Pharmacokinetics of intraperitoneal or intravenous injection in CD1 mice
# Type: in vivo
# details: male, CD1, mouse, plasma, ip, 10 mg/kg, IP 10 mg/kg, CD1 mice plasma, 1 h; read-out: Conc. (ng/mL) Mouse 3
experimental-readout: log10 concentration at 1 h (log10 of the value in ng/mL)

[[record]]
compound = "Cc1ncsc1-c1ccc(CNC(=O)[C@@H]2C[C@@H](O)CN2C(=O)[C@@H](NC(=O)COCCCOc2ccc(Nc3ncc(C(F)(F)F)c(NCc4cccc(N(C)S(C)(=O)=O)c4)n3)cc2)C(C)(C)C)cc1 [Compound 101]"
observed_result = 3.25

[[record]]
compound = "Cc1ncsc1-c1ccc(CNC(=O)[C@@H]2C[C@@H](O)CN2C(=O)[C@@H](NC(=O)CCOCCCOc2ccc(Nc3ncc(C(F)(F)F)c(NCc4cccc(N(C)S(C)(=O)=O)c4)n3)cc2)C(C)(C)C)cc1 [Compound 103]"
observed_result = 3.09

[[record]]
compound = "Cc1ncsc1-c1ccc(CNC(=O)[C@@H]2C[C@@H](O)CN2C(=O)[C@@H](NC(=O)CCOCCOc2ccc(Nc3ncc(C(F)(F)F)c(NCc4cccc(N(C)S(C)(=O)=O)c4)n3)cc2)C(C)(C)C)cc1 [Compound 102]"
observed_result = 3.33

[[record]]
compound = "CN(c1cccc(CNc2nc(Nc3ccc(OCCCOCCC(=O)NCCOc4cccc5c4C(=O)N(C4CCC(=O)NC4=O)C5=O)cc3)ncc2C(F)(F)F)c1)S(C)(=O)=O (centres unmarked) [Compound 107]"
observed_result = 2.30

[[record]]
compound = "Cc1ncsc1-c1ccc(CNC(=O)[C@@H]2C[C@@H](O)CN2C(=O)[C@@H](NC(=O)COCCOc2ccc(Nc3ncc(C(F)(F)F)c(NCc4cccc(N(C)S(C)(=O)=O)c4)n3)cc2)C(C)(C)C)cc1 [Compound 100]"
observed_result = 3.39

